# Test system: KM12 colon
# TEST NAME: NCI-60 one-dose screen, 48 h (100 = growth as untreated, 0 = no growth, -100 = all killed)
# TEST PARAMETERS: 10 µM unless noted
About 83,000 compounds went through this panel and 20% of them were active in at least one assay; those are over-represented in the sample as a whole. Calls of active or inactive are those of the source. Rule for the calls: active = growth percent below 10; inactive = the rest.
Recorded measurements of growth, one per entry

| COMPOUND | growth |
| --- | --- |
| CC1=CCC[C@@H]2C1(C)CC[C@H](C)[C@@]2(C)CC1=CC(=O)C(SC(C)(C)C)=CC1=O (some centres undefined) | 93.1% (inactive) |
| O=[N+]([O-])/C(=C\c1ccco1)c1ccccc1Cl | 89.5% (inactive) |
| NC(=O)c1ccc(NC(=O)c2oc3ccccc3c2-c2cnn(-c3ccccc3)c2)cc1 | 34.1% [50 µM] (inactive) |
| CCCCn1sc(=O)n(Cc2ccc(CNC(=O)OCc3ccc4c(Br)cc(Br)c(O)c4n3)cc2)c1=O | 2.42% (active) |
| COc1ccc2nc(SCC(=O)Nc3ccccc3C)[nH]c2c1 | 101% (inactive) |
| O=S(=O)(c1ccccc1)N1CCCN(c2nc(-c3ccccc3)nc3nc(-c4ccccc4)oc23)CC1 | 113% (inactive) |
| CCN(CC)S(=O)(=O)c1ccc(S(=O)(=O)N2CCC[C@@H](C(=O)N3CCN(C(=O)OC(C)(C)C)CC3)C2)cc1 | 76.9% (inactive) |
| COc1cc(C(=O)C(=O)c2cc(OC)c(O)c(OC)c2)cc(OC)c1O | 107% (inactive) |
| CCCC(O)Cn1ncc(C(=O)OCC)c1NC(=O)NCc1cccc(F)c1 (centres undefined) | 105% (inactive) |
